Consider the following compounds; for each one, report its % MLfib 3 min.
# system: fibrinogen (Bos taurus, UniProt P02672+P02676+P12799)
# Sequence (P02672 20-615): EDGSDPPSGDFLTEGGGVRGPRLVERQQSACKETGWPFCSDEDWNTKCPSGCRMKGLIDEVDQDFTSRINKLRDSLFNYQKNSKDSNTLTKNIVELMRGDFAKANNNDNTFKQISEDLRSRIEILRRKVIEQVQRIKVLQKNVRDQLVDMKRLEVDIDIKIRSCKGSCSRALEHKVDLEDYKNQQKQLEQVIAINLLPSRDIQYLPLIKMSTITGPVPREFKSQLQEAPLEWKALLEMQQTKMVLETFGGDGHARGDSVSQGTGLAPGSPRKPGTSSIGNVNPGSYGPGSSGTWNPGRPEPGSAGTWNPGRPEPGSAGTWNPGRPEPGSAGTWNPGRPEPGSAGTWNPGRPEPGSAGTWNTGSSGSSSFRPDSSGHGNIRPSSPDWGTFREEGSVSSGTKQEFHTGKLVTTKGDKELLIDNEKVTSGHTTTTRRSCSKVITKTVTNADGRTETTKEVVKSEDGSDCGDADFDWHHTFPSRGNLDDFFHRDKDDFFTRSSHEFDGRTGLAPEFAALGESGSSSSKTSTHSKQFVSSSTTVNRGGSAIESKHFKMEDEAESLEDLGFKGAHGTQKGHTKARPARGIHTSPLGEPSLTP
# Sequence (P02676 whole entry): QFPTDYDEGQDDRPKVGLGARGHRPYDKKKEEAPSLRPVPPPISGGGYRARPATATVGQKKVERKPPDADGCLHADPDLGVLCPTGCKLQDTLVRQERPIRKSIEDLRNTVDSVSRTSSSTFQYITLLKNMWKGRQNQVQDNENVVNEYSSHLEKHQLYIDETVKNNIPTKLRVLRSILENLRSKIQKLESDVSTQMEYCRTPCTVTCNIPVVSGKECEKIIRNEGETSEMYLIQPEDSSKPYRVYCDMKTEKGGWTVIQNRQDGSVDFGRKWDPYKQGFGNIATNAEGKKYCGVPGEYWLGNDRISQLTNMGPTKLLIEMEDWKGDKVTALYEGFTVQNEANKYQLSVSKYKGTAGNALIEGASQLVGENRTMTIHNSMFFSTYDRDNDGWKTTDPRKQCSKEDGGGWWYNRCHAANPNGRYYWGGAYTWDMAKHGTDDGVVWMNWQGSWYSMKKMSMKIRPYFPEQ
# Sequence (P12799 25-444): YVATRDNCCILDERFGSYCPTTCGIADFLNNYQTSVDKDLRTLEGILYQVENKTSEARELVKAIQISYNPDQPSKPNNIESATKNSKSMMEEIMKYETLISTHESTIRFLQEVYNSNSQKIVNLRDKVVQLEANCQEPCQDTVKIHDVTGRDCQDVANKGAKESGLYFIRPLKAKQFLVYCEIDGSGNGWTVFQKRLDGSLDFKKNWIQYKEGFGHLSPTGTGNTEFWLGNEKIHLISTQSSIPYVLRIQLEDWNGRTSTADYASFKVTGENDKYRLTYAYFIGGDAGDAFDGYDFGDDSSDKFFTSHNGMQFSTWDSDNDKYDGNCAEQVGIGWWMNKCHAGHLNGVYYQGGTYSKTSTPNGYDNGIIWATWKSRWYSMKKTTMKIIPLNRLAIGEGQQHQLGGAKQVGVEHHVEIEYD
# assay name: SPR adsorption of fibrinogen to SAMs / grafted polymer films
# Assay type: binding, bovine
# condition parameters: mixed SAM —CONRR′/—CO2H; 1 mg/mL fibrinogen flowed 3 min; relative to —CONH(CH2)10CH3/—CO2H SAM
Where a SMILES comes first, the peptide text is derived from it.
Hi, when you answer, please include the unit after the number. Thanks!

For reference, reported % MLfib 3 min for CN(C)C(=O)CNC(=O)CNC(=O)CN [H2N(Gly)3N(CH3)2] (H-Gly-Gly-Gly-NMe2) stands at 8 ± 1%

For reference, reported % MLfib 3 min for `O=CN1CCNCC1` stands at 23 ± 1%

For reference, reported % MLfib 3 min for `CN(C)C(=O)CN` stands at 18 ± 0.5%

For reference, reported % MLfib 3 min for `CN1CCNCC1` stands at 8.2 ± 1%

For reference, reported % MLfib 3 min for N#CCCNCCC#N [HN(CH2CH2CN)2] stands at 43 ± 1.0%
